Test system: SKOV3
Experiment: Primary qHTS to identify gynecologic anti-cancer compounds using libraries of approved drugs and bioactive compounds (AID 1345084); further: nearly all actives have a fitted effect of over 55% in size
Conditions: Gynecologic cancer cell panel viability, ATPlite luminescence, 48 h; series mostly up to 57.5 µM
Inconclusive results are not listed. Active and inactive are the calls of the source. The call rests on the fitted dose curve; in most records, active means well fitted cell-killing curve with a large enough effect; inconclusive means small, poorly fitted or top-dose-only effect, or effect the other way; inactive means flat fitted curve, though single readings scatter.
READOUT TYPE: outcome

Example entries and their recorded answers appear below.
MOLECULE	outcome
COc1ccccc1OCC(O)CO (stereo unspecified)	inactive
CCS(=O)(=O)CCn1c([N+](=O)[O-])cnc1C	inactive
Cc1cc(NC(=O)C2=C(O)c3ccccc3S(=O)(=O)N2C)no1	inactive
CC(N)CCCC(C)(C)O (stereo unspecified)	inactive
CNCc1ccccc1	inactive
COc1ccc(-c2cc(=O)c3c(O)cc(O[C@@H]4O[C@H](CO[C@@H]5O[C@@H](C)[C@H](O)[C@@H](O)[C@H]5O)[C@@H](O)[C@H](O)[C@H]4O)cc3o2)cc1O	inactive
CN/C(=C\[N+](=O)[O-])NCCSCc1csc(CN(C)C)n1	inactive
CCCCCC(C)N (stereo unspecified)	inactive

Kindly consider the entry below.
Give the measured outcome of CC(C)(C)NCC(O)COc1cccc2c1CCC(=O)N2 (stereo unspecified) . inactive
